# System: sorbitol accumulation
# EXPERIMENT: Inhibitory activity on sorbitol accumulation (in vivo), sciatic nerve of streptozotocin-diabetic rats
# Set-up: species or system Male Wistar rats
# EXPERIMENTAL_CONTEXT: 1.0 mg/kg/day, oral, once a day for 5 days; sciatic nerve, 4 hours after final administration
# Inhibition (%) of sorbitol accumulation values compiled below
Write down the value, and be sure its unit follows.

COMPOUND	Inhibition (%) of sorbitol accumulation
O=C1CC2(C(=O)N1)C(=O)N(Cc1ccc(Cl)c(Cl)c1)C(=O)c1cccn12 (centres unmarked) [Example 24]	70.9%
O=C1CC2(C(=O)N1)C(=O)N(Cc1ccc(Br)cc1F)C(=O)c1cccn12 (single isomer, unassigned) [Example 22]	107.3%

The compound O=C1CC2(C(=O)N1)C(=O)N(Cc1ccccc1F)C(=O)c1cccn12 (centres unmarked) [Example 4] showed Inhibition (%) of sorbitol accumulation equal to 47.2%

The compound O=C1CC2(C(=O)N1)C(=O)N(Cc1ccc(Br)cc1F)C(=O)c1cccn12 (centres unmarked) [Example 1] showed Inhibition (%) of sorbitol accumulation equal to 104.7%

The compound O=C1CC2(C(=O)N1)C(=O)N(Cc1ccc(Cl)cc1F)C(=O)c1cccn12 (centres unmarked) [Example 16] showed Inhibition (%) of sorbitol accumulation equal to 61.0%

Data provenance: patent US5258382A
